Assay: protein stability index of a GFP-peptide fusion (GPS, HEK-293T) (PSI 1-6); higher = more stable;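 further: 24-mer peptide tiles fused after GFP, lentivirally expressed, FACS-sorted into six equal bins by GFP/DsRed ratio, decoded by Illumina sequencing, PSI is the read-weighted mean bin number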
Settings: treatment: MLN4924 1 uM, 8 h; c terminus: a fixed tail appended
Measured protein stability index of individual entries
readoutLabel: protein stability index

>  <residueCodes>
KDVKERFSGSLVAALSATGPRFLA [TMEM175]

>  <readoutLabel>
protein stability index

>  <reported>
2.73

$$$$
>  <residueCodes>
TGILLHPWLRQDPMPLAPTRSHLW [TRIB3]

>  <readoutLabel>
protein stability index

>  <reported>
2.18

$$$$
>  <residueCodes>
LTCDALTELLAKITNTDVDCLKAC [CCND2]

>  <readoutLabel>
protein stability index

>  <reported>
2.34

$$$$
>  <residueCodes>
AGRAAAPELSYRVCVGSDVTSIHK [MYORG]

>  <readoutLabel>
protein stability index

>  <reported>
3.35

$$$$
>  <residueCodes>
VISVVSYLILALLSVTISFRIYKS [RTN3]

>  <readoutLabel>
protein stability index

>  <reported>
2.8

$$$$
>  <residueCodes>
KDILGFAVMFFIVFFAYAQLGYLL [PKD2L1]

>  <readoutLabel>
protein stability index

>  <reported>
2.93

$$$$
>  <residueCodes>
VLRHFHLLSDGSNTLSVSYKKGRM [SLC6A17]

>  <readoutLabel>
protein stability index

>  <reported>
2.61

$$$$
>  <residueCodes>
WMEILILGVVYRSLSFEDELVYAD [ESRRG]

>  <readoutLabel>
protein stability index

>  <reported>
2.68

$$$$
>  <residueCodes>
KIKVRFSFFLQIYLIMIFLGLYIN [HACD3]

>  <readoutLabel>
protein stability index

>  <reported>
2.29

$$$$
>  <residueCodes>
QYIISDLASARIIEQDAVVPSEWL [GMCL1]

>  <readoutLabel>
protein stability index

>  <reported>
2.76

$$$$
>  <residueCodes>
LLARGTMQPFNYVTLQCLAARALD [FEM1A]

>  <readoutLabel>
protein stability index

>  <reported>
2.22

$$$$
>  <residueCodes>
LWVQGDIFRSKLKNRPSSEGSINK [CDC14A]

>  <readoutLabel>
protein stability index

>  <reported>
2.92

$$$$
>  <residueCodes>
VGQDNGAVMEFHVSEDFNKMNFIK [WDFY1]

>  <readoutLabel>
protein stability index

>  <reported>
3.14

$$$$

// data source = the supplement of paper PMC10567573
